# System: SK-MEL-5
# Test description: NCI-60 growth inhibition: SK-MEL-5 (Melanoma)
# Format: cell-based, human
# Experimental conditions: Homo sapiens
Would you kindly list GI50 for each of these compounds?
Answer with a number only, understood to be in µM.

## Task Give the measured GI50 of C=C1C(=O)O[C@H]2[C@H]1CC/C(COC(=O)NCc1ccc(Cn3c(=O)sn(-c4ccccc4)c3=O)cc1)=C\CC[C@@]1(C)O[C@@H]21 .
## Result 3.24

## Task Note, next up: C=C1C(=O)O[C@H]2[C@H]1CC/C(COC(=O)NCc1ccc(Cn3c(=O)sn(CCI)c3=O)cc1)=C\CC[C@@]1(C)O[C@@H]21
## Result 5.37

## Task Note, next up: C=C1C(=O)O[C@H]2[C@H]1CC/C(COC(=O)NCc1ccc(Cn3c(=O)sn(CCCI)c3=O)cc1)=C\CC[C@@]1(C)O[C@@H]21
## Result 1.91

## Task Note, next up: C=C1C(=O)O[C@H]2[C@H]1CC/C(COC(=O)NCc1ccc(Cn3c(=O)sn(-c4ccc(OC)cc4)c3=O)cc1)=C\CC[C@@]1(C)O[C@@H]21
## Result 12

## Task Note, next up: C=C1C(=O)O[C@H]2[C@H]1CC/C(COC(=O)NCc1ccc(Cn3c(=O)sn(CCCC)c3=O)cc1)=C\CC[C@@]1(C)O[C@@H]21
## Result 3.18

* * *

# Tested on: MOLT-4
# Test description: NCI-60 growth inhibition: MOLT-4 (Leukemia)
# Format: cell-based, human
# Experimental conditions: Homo sapiens
Would you kindly list GI50 for each of these molecules?
Answer with a number only, understood to be in nM.

## Task Give the measured GI50 of C=C1C(=O)O[C@H]2[C@H]1CC/C(COC(=O)NCc1ccc(Cn3c(=O)sn(CCCC)c3=O)cc1)=C\CC[C@@]1(C)O[C@@H]21 .
## Result 1550

## Task Note, next up: C=C1C(=O)O[C@H]2[C@H]1CC/C(COC(=O)NCc1ccc(Cn3c(=O)sn(-c4ccc(OC)cc4)c3=O)cc1)=C\CC[C@@]1(C)O[C@@H]21
## Result 1930

## Task Note, next up: C=C1C(=O)O[C@H]2[C@H]1CC/C(COC(=O)NCc1ccc(Cn3c(=O)sn(CCI)c3=O)cc1)=C\CC[C@@]1(C)O[C@@H]21
## Result 1350

## Task Note, next up: C=C1C(=O)O[C@H]2[C@H]1CC/C(COC(=O)NCc1ccc(Cn3c(=O)sn(CCCI)c3=O)cc1)=C\CC[C@@]1(C)O[C@@H]21
## Result 290

## Task Note, next up: C=C1C(=O)O[C@H]2[C@H]1CC/C(COC(=O)NCc1ccc(Cn3c(=O)sn(-c4ccccc4)c3=O)cc1)=C\CC[C@@]1(C)O[C@@H]21
## Result 2200

* * *

# Tested on: SN12C
# Test description: NCI-60 growth inhibition: SN12C (Renal Cancer)
# Type: cell-based, human
# Experimental conditions: Homo sapiens
Would you kindly list GI50 for each of these compounds?
Answer with a number only, understood to be in nM.

## Task Give the measured GI50 of C=C1C(=O)O[C@H]2[C@H]1CC/C(COC(=O)NCc1ccc(Cn3c(=O)sn(-c4ccccc4)c3=O)cc1)=C\CC[C@@]1(C)O[C@@H]21 .
## Result 2130

## Task Note, next up: C=C1C(=O)O[C@H]2[C@H]1CC/C(COC(=O)NCc1ccc(Cn3c(=O)sn(-c4ccc(OC)cc4)c3=O)cc1)=C\CC[C@@]1(C)O[C@@H]21
## Result 2140

## Task Note, next up: C=C1C(=O)O[C@H]2[C@H]1CC/C(COC(=O)NCc1ccc(Cn3c(=O)sn(CCCI)c3=O)cc1)=C\CC[C@@]1(C)O[C@@H]21
## Result 1570

## Task Note, next up: C=C1C(=O)O[C@H]2[C@H]1CC/C(COC(=O)NCc1ccc(Cn3c(=O)sn(CCCC)c3=O)cc1)=C\CC[C@@]1(C)O[C@@H]21
## Result 1730

## Task Note, next up: C=C1C(=O)O[C@H]2[C@H]1CC/C(COC(=O)NCc1ccc(Cn3c(=O)sn(CCI)c3=O)cc1)=C\CC[C@@]1(C)O[C@@H]21
## Result 2160

* * *

# Test system: OVCAR-8
# Test description: NCI-60 growth inhibition: OVCAR-8 (Ovarian Cancer)
# Assay type: cell-based, human
# Experimental conditions: Homo sapiens
Would you kindly list GI50 for each of these molecules?
Answer with a number only, understood to be in µM.

## Task Hi! What's the reported GI50 for C=C1C(=O)O[C@H]2[C@H]1CC/C(COC(=O)NCc1ccc(Cn3c(=O)sn(-c4ccc(OC)cc4)c3=O)cc1)=C\CC[C@@]1(C)O[C@@H]21 [BSK-271] on OVCAR-8?
## Result 2.37

## Task Note, next up: C=C1C(=O)O[C@H]2[C@H]1CC/C(COC(=O)NCc1ccc(Cn3c(=O)sn(-c4ccccc4)c3=O)cc1)=C\CC[C@@]1(C)O[C@@H]21 [BSK-197]
## Result 2.83

## Task Note, next up: C=C1C(=O)O[C@H]2[C@H]1CC/C(COC(=O)NCc1ccc(Cn3c(=O)sn(CCCI)c3=O)cc1)=C\CC[C@@]1(C)O[C@@H]21 [BSK-259]
## Result 3.04

## Task Note, next up: C=C1C(=O)O[C@H]2[C@H]1CC/C(COC(=O)NCc1ccc(Cn3c(=O)sn(CCI)c3=O)cc1)=C\CC[C@@]1(C)O[C@@H]21 [BSK-187]
## Result 4.55

## Task Note, next up: C=C1C(=O)O[C@H]2[C@H]1CC/C(COC(=O)NCc1ccc(Cn3c(=O)sn(CCCC)c3=O)cc1)=C\CC[C@@]1(C)O[C@@H]21 [BSK-230]
## Result 3.64

* * *

# System: NCI-H522
# Test description: NCI-60 growth inhibition: NCI-H522 (Non-Small-Cell Lung Cancer)
# Experimental conditions: Homo sapiens, NCI-H522
Would you kindly list GI50 for each of these compounds?
Param answer (str): number followed by unit.

## Task Give the measured GI50 of C=C1C(=O)O[C@H]2[C@H]1CC/C(COC(=O)NCc1ccc(Cn3c(=O)sn(-c4ccc(OC)cc4)c3=O)cc1)=C\CC[C@@]1(C)O[C@@H]21 .
## Result 1670 nM

## Task Note, next up: C=C1C(=O)O[C@H]2[C@H]1CC/C(COC(=O)NCc1ccc(Cn3c(=O)sn(CCI)c3=O)cc1)=C\CC[C@@]1(C)O[C@@H]21
## Result 1720 nM

## Task Note, next up: C=C1C(=O)O[C@H]2[C@H]1CC/C(COC(=O)NCc1ccc(Cn3c(=O)sn(CCCC)c3=O)cc1)=C\CC[C@@]1(C)O[C@@H]21
## Result 1190 nM

## Task Note, next up: C=C1C(=O)O[C@H]2[C@H]1CC/C(COC(=O)NCc1ccc(Cn3c(=O)sn(CCCI)c3=O)cc1)=C\CC[C@@]1(C)O[C@@H]21
## Result 1070 nM

## Task Note, next up: C=C1C(=O)O[C@H]2[C@H]1CC/C(COC(=O)NCc1ccc(Cn3c(=O)sn(-c4ccccc4)c3=O)cc1)=C\CC[C@@]1(C)O[C@@H]21
## Result 1740 nM

* * *

# System: HCT-15
# Test description: NCI-60 growth inhibition: HCT-15 (Colon Cancer)
# Type: cell-based, human
# Experimental conditions: Homo sapiens
Would you kindly list GI50 for each of these compounds?
Answer with a number only, understood to be in nM.

## Task Hi! What's the reported GI50 for C=C1C(=O)O[C@H]2[C@H]1CC/C(COC(=O)NCc1ccc(Cn3c(=O)sn(CCCI)c3=O)cc1)=C\CC[C@@]1(C)O[C@@H]21 [BSK-259] on HCT-15?
## Result 1890

## Task Note, next up: C=C1C(=O)O[C@H]2[C@H]1CC/C(COC(=O)NCc1ccc(Cn3c(=O)sn(-c4ccccc4)c3=O)cc1)=C\CC[C@@]1(C)O[C@@H]21 [BSK-197]
## Result 1940

## Task Note, next up: C=C1C(=O)O[C@H]2[C@H]1CC/C(COC(=O)NCc1ccc(Cn3c(=O)sn(CCI)c3=O)cc1)=C\CC[C@@]1(C)O[C@@H]21 [BSK-187]
## Result 1910

## Task Note, next up: C=C1C(=O)O[C@H]2[C@H]1CC/C(COC(=O)NCc1ccc(Cn3c(=O)sn(CCCC)c3=O)cc1)=C\CC[C@@]1(C)O[C@@H]21 [BSK-230]
## Result 2020

## Task Note, next up: C=C1C(=O)O[C@H]2[C@H]1CC/C(COC(=O)NCc1ccc(Cn3c(=O)sn(-c4ccc(OC)cc4)c3=O)cc1)=C\CC[C@@]1(C)O[C@@H]21 [BSK-271]
## Result 1680
